- TARGET DESC: T1, MDM2 (res 2-125) (UniProt Q00987 2-125)
- T1 construct: range 2-125
- T1 sequence (Q00987 2-125 limits assumed): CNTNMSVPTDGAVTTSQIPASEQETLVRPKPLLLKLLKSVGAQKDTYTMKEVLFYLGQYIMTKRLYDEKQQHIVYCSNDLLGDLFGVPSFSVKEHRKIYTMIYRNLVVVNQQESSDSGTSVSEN
- ASSAY REMARKS: fluorescence anisotropy titration, MDM2 (res 2-125) titrated into the peptide, quadratic 1:1 fit with linear drift term; unit from the axis uM Mdm2
Starred links: 1 amine or outer side, 2 acyl side, 3 side chain; linkers in the order of their positions; H or OH if unused. Positions of bridges follow the written chain, without caps; N, C: chain ends. TBMB = c1c(C[*:1])cc(C[*:3])cc1C[*:2]
MEASURED METRIC: Kd (nM)
Numbers only, in nM.

### Prompt Item H-SCELWNPKCRLSPFECKG-OH (linker 2-9-16 via TBMB, measured in PBS with 5 mM DTT; also called peptide 10) [PEP10 bicyclic peptide (synthetic peptide of phage clone 10 conjugated to TBMB)] has what recorded Kd?
### Response 268

Origin of measurements: patent US8685890
